System: MCF7 breast
test: NCI tumour cell line growth inhibition, 384-well format; in the data active means GI50 below about 0.43 µM; inactive means the rest
Select the correct class. Options are yes = active, no = inactive and nothing else.

Check out these entries, answers already filled in.
1. Cc1c(C#N)cccc1[C@@H](C)Nc1nnc(C)c2cnc(N3CCOCC3)cc12
no
2. O=C(NCC(F)(F)F)Nc1cccc(-c2cnc3cc(-c4ccc(F)cc4)ccn23)c1
no
3. COc1ccc(-c2cc3c(C)nc(N)nc3n(C3CCC(OCCO)CC3)c2=O)cn1 (centres undefined)
yes

Let us examine a further case.
Dear all, I need the recorded test outcome for O=C(NCCCc1cn[nH]c1)c1ccc(-c2ccncc2)c(C#Cc2ccc(F)cc2)c1 , thank you.
yes
